Please respond with reported solubility in aqueous solutions (concentration dissolved to) for every item in the list.
- procedure.summary: Solubility of the surfactant
- measurement.setup: aqueous solution
Write the answer as a number in %, unit excluded.

Indicate the recorded solubility in aqueous solutions (concentration dissolved to) value for this compound: CCCCCCCCCCCC(C)(C)OC(=O)Oc1ccc(N(CCCCS(=O)(=O)[O-])CCCCS(=O)(=O)O)cc1.[Na+]
0.5

Report solubility in aqueous solutions (concentration dissolved to), nothing else, for this compound: CCCCCCCCCCC(OC(=O)NCCCS(=O)(=O)O)c1ccc(C(F)(F)F)o1 (centres unmarked)
1

Respond only with solubility in aqueous solutions (concentration dissolved to) recorded for CCCCCCCCCOCC(C)(C)OC(=O)NCCCS(=O)(=O)O
0.5

Return value of solubility in aqueous solutions (concentration dissolved to) for input CCCCCCCCCCC(OC(=O)NCCCS(=O)(=O)O)c1ccsc1 (centres unmarked) , no commentary.
1

State, in one line, measured solubility in aqueous solutions (concentration dissolved to) of CCCCCCCCCCCC(C)(C)OC(=O)SCCS(=O)(=O)O
0.5

State, in one line, measured solubility in aqueous solutions (concentration dissolved to) of CCCCCCCCCCOc1ccc(C(OCCN(CCCCS(=O)(=O)[O-])CCCCS(=O)(=O)[O-])(c2ccccc2)c2ccc(OC)cc2)cc1.[Na+].[Na+] (centres unmarked)
1

Check the records and state solubility in aqueous solutions (concentration dissolved to) for CCCCCCCCCCOc1ccc(C(OCCc2ccc(N(CCCCS(=O)(=O)[O-])CCCCS(=O)(=O)[O-])cc2)(c2ccccc2)c2ccccc2)cc1.[Na+].[Na+]
1

Item CCCCCCCCCCC(OC(=O)NCCCS(=O)(=O)O)c1ccccc1OC (centres unmarked) : provide solubility in aqueous solutions (concentration dissolved to)
0.5

----------
Give measured surfactant Pk area/RG Pk area, Myoglobin/Trypsin digest for each item. Keep answers brief.
- system.tested: Myoglobin from horse heart digested with trypsin (Equus caballus, UniProt P68082)
- Construct: Myoglobin from horse heart; from tissue; host or cells: horse heart
- Sequence (P68082 2-154 limits assumed): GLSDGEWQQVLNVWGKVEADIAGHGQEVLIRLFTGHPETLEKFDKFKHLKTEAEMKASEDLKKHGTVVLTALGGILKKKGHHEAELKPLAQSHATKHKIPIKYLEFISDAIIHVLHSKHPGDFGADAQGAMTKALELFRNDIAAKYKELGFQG
- procedure.summary: Myoglobin/Trypsin digest, HPLC peak area versus RapiGest control
- Type: biochemical
- measurement.setup: 0.01% surfactant, trypsin 50:1, 20 minutes at 37° C.; ratio to RapiGest control, >1 = more digestion
Enter the number alone.

Kindly indicate its recorded surfactant Pk area/RG Pk area, Myoglobin/Trypsin digest. Item: CCCCCC/C=C/C(C)OC(=O)NCCCS(=O)(=O)O (centres unmarked) [Compound 3201]
0.3

Answer with reported surfactant Pk area/RG Pk area, Myoglobin/Trypsin digest of CCCCCCCCCCC(OC(=O)NCCCS(=O)(=O)O)c1ccc(Cl)o1 (centres unmarked) [Compound 3274]
1

Fill in reported surfactant Pk area/RG Pk area, Myoglobin/Trypsin digest for this entry: CCCCCCCCCCC(OC(=O)NCCCS(=O)(=O)O)c1ccc(Br)o1 (centres unmarked) [Compound 3270]
0.8

Read off the recorded surfactant Pk area/RG Pk area, Myoglobin/Trypsin digest for CCCCCCCC(C)(C)OC(=O)Oc1ccc(NCCCS(=O)(=O)[O-])cc1.[Na+] [Compound 3210]
0.3

Give reported surfactant Pk area/RG Pk area, Myoglobin/Trypsin digest value for CCCCCCCCCCC1COC(c2cc(OCCCS(=O)(=O)[O-])ccc2[N+](=O)[O-])O1.[Na+] (centres unmarked) [Compound 3225]
1.1

Complete the entry with surfactant Pk area/RG Pk area, Myoglobin/Trypsin digest for CCCCCCCCCCC(OC(=O)NCCCS(=O)(=O)O)c1ccc(C(F)(F)F)o1 (centres unmarked) [Compound 3275]
0.2

Provide surfactant Pk area/RG Pk area, Myoglobin/Trypsin digest value for the following molecule: CCCCCCCCCCCCOc1ccc(/C=N/CCCS(=O)(=O)O)cc1 [Compound 3221]
0.13

Indicate the recorded surfactant Pk area/RG Pk area, Myoglobin/Trypsin digest value for this molecule: CCCCCCCCCCC(OC(=O)NCCCS(=O)(=O)O)c1ccc(C(F)(F)F)cc1 (centres unmarked) [Compound 3200]
0.7
